MEASURED_ON: Mitogen-activated protein kinase 14 (Homo sapiens)
Sequence (Q16539 whole entry): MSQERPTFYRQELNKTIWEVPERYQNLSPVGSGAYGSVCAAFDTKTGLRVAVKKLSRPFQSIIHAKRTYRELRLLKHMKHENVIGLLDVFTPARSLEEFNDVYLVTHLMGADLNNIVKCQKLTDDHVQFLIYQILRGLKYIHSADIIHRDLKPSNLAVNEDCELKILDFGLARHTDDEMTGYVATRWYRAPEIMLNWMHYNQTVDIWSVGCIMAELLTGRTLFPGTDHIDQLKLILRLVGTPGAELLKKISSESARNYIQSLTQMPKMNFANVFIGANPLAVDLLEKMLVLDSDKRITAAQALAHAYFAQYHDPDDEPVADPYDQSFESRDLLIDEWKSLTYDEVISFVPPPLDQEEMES
TEST_DESCRIPTION: Inhibition of p38 alpha MAPK in human whole blood assessed as phosphorylation of ATF-2 by immunosorbent non-radioactive enzyme assay relative to SB203580
Type: tissue-based
READOUT_KIND: Ratio IC50
Numbers only.

# count of solved cases: 5
> print(dat)
                                   molecule  test.value
1  CSc1nc(-c2ccc(F)cc2)c(-c2ccnc(NC3CCCCC3)c2)[nH]1        2.89
2  C[S+]([O-])c1nc(-c2ccc(F)cc2)c(-c2ccnc(NC(=O)Cc3ccc(F)cc3)c2)[nH]1 (racemic)        1.16
3  CC(=O)Nc1cc(-c2c(-c3ccc(F)cc3)nc([S@+](C)[O-])n2C)ccn1       0.028
4  CC(C)[S@@+]([O-])c1nc(-c2ccc(F)cc2)c(-c2ccnc(NC3CCCCC3)c2)[nH]1        3.09
5  C[C@@H](Nc1cc(-c2[nH]c([S@@+](C)[O-])nc2-c2ccc(F)cc2)ccn1)c1ccccc1        0.49

State recorded Ratio IC50 for all listed molecules.
1. CSc1nc(-c2ccc(F)cc2)c(-c2ccnc(NC(C)C)c2)[nH]1
2. CC(C)Nc1cc(-c2[nH]c([S@+]([O-])C(C)C)nc2-c2ccc(F)cc2)ccn1

A:
1. 18
2. 9.25
